The origin of these recorded values is patent US11548883B2.

- Tested on: LPA production in blood serum
- assay summary: Inhibitory activity on LPA production in human blood serum
- Format: biochemical
- condition parameters: human blood serum (h), 18:1 LPC added
Recorded IC50, one value per entry.

# compound, unit descriptor, IC50
measured = [
    ("CCc1nn(CC(=O)N2CCc3[nH]nnc3C2)cc1-c1cnc(NC2Cc3ccccc3C2)nc1 [Compound 79]", "nM", 5),
    ("O=C(Cn1cc(-c2cnc(NC3Cc4ccccc4C3)nc2)c(OCc2ccccc2)n1)N1CCc2[nH]nnc2C1 [Compound 63]", "nM", 10),
]
